system: Phytophthora infestans; assay: microbe, parasite or virus in culture; assay type: cell-based; details: Phytophthora infestans, read-out: Observed effect, 1 ppm
Quantity measured: inhibition of growth at 1 ppm
Kindly report the value followed by its unit.

Below, each entry is followed by its recorded inhibition of growth at 1 ppm result.
- Compound: "O=[N+]([O-])c1cc(C(F)(F)F)c(Cl)c([N+](=O)[O-])c1Nc1ncc(C(F)(F)F)cc1Cl"
  Result value: "24%"
- Compound: "N#Cc1c[nH]cc1-c1cccc2c1OC(F)(F)O2"
  Result value: "27%"
- Compound: "CC(Cc1ccc(C(C)(C)C)cc1)CN1C[C@@H](C)O[C@@H](C)C1 (stereo partly shown)"
  Result value: "26%"

Proceeding to the next compound to report its inhibition of growth at 1 ppm.
Look up inhibition of growth at 1 ppm for this compound: OC(c1ccc(Cl)cc1)(c1cncnc1)c1ccccc1Cl (stereo not shown)
28%

These entries and their values trace back to patent US20120088661A1.
